system: NCI/ADR-RES ovarian; experiment: NCI-60 one-dose screen, 48 h; conditions: 10 µM unless noted
The panel holds about 83,000 compounds, 20% with a hit somewhere; the sample as a whole holds those more often. Calls of active or inactive are those of the source. Rule for the calls: active = growth percent below 10; inactive = the rest.
In this exercise, the only acceptable responses are true (1) (active), false (0) (inactive)

Worked cases, answers included:
I would be grateful if you could indicate the recorded call for C=C(CN1CC=CCC1)[C@@H]1CC[C@]2(C(=O)OC)CC[C@]3(C)[C@H](CC[C@@H]4[C@@]5(C)CC[C@H](OC(C)=O)C(C)(C)[C@@H]5CC[C@]43C)[C@@H]12 . false (0)

I would be grateful if you could indicate the recorded call for O=C(Nc1ccc(Oc2ccc(Nc3nc4ccccc4s3)cc2)cc1)Nc1ccc(Cl)c(C(F)(F)F)c1 . true (1)

I would be grateful if you could indicate the recorded call for CC(=O)Nc1nonc1-c1nc2ccccc2n1Cc1ccc(C(C)(C)C)cc1 . false (0)

I would be grateful if you could indicate the recorded call for COc1ccc(/C=c2\c(=O)n(-c3ccccc3)c3nn4c(n23)=NNC42CCCCC2)cc1 . false (0)

I would be grateful if you could indicate the recorded call for CCN(C(=O)Nc1cccc2ccccc12)c1ccccc1 . false (0)

I would be grateful if you could indicate the recorded call for COc1ccc(-n2nc(C(=O)NCC(=O)Nc3nc4cc(OC)ccc4s3)c3ccccc3c2=O)cc1 . true (1)

***
I would be grateful if you could indicate the recorded call for COC(=O)c1ccc(NC(N)=NCCC(C)(C)c2ccc(C(F)(F)F)cc2)nc1 . false (0)

I would be grateful if you could indicate the recorded call for CC(=O)Nc1ccc(Cl)cc1Cl . false (0)

I would be grateful if you could indicate the recorded call for COc1cccc(CC(C)=C(c2ccc(OCCCN(C)C)cc2)c2ccc(OCCCN(C)C)cc2)c1 . true (1)

I would be grateful if you could indicate the recorded call for CC(CN1CCN(CCOCCO)CC1)CN1c2ccccc2Sc2ccc(Cl)cc21 (stereo unspecified) . false (0)

I would be grateful if you could indicate the recorded call for O=C(C(Br)C(Br)c1ccccc1)C(Br)C(Br)c1ccccc1 (stereo unspecified) . false (0)

I would be grateful if you could indicate the recorded call for CC(C)(C)CC(C)(C)NCc1cc(C(C)(C)C)cc(CNC(C)(C)CC(C)(C)C)c1O . false (0)

I would be grateful if you could indicate the recorded call for COc1ccc(OC)c(Nc2nc(-c3c(C)nc4sccn34)cs2)c1 . false (0)

I would be grateful if you could indicate the recorded call for CC(OC(=O)Nc1cccc(Cl)c1)C(=O)O (stereo unspecified) . false (0)

I would be grateful if you could indicate the recorded call for C=CC[C@]1(O)CC[C@H]2[C@@H]3CCc4cc(O)ccc4[C@H]3CC[C@@]21C . false (0)

I would be grateful if you could indicate the recorded call for Nc1nc2c(c3ncccc13)C(c1ccccc1)Cc1ncccc1-2 (stereo unspecified) . false (0)

I would be grateful if you could indicate the recorded call for C/C(=N\OC(=O)Nc1ccccc1)c1ccccc1 . false (0)

I would be grateful if you could indicate the recorded call for O=C(/C=C/c1ccccc1)n1c(-c2ccccc2)nc2ccccc21 . false (0)

I would be grateful if you could indicate the recorded call for CCOC(C)(c1ccc(Cl)cc1)C1CCNCC1 (stereo unspecified) . false (0)

I would be grateful if you could indicate the recorded call for COc1ccc(/C=C2\CCCC3=C2N=C2SC(C)=NN2C3c2ccc(OC)c(OC)c2)cc1OC (stereo unspecified) . false (0)

I would be grateful if you could indicate the recorded call for CC1=C(O)C(=O)C(c2c(C)cc(C)c(Br)c2C)=C(O)C1=O . false (0)

I would be grateful if you could indicate the recorded call for CC1(C)C(N(O)C(=O)Nc2ccc(Cl)cc2)N(c2ccc(Cl)cc2)C(=O)N1CC(=O)N/N=C/C=C/c1ccc([N+](=O)[O-])o1 (stereo unspecified) . false (0)

I would be grateful if you could indicate the recorded call for NNC(=O)Cc1ccccc1 . false (0)

I would be grateful if you could indicate the recorded call for O=S(=O)(NCC[C@@H]1C[C@H]1c1ccc2ccccc2c1)c1ccc(C(F)(F)F)cc1 . false (0)

I would be grateful if you could indicate the recorded call for Cc1[nH]n(C(=O)c2ccncc2)c(=O)c1N=Nc1ccc(O)c(C(=O)O)c1 . false (0)

I would be grateful if you could indicate the recorded call for Clc1cn2cc(-c3ccc(Cl)c(Cl)c3Cl)nc2s1 . false (0)

I would be grateful if you could indicate the recorded call for CC1=NN(c2cccc(S(N)(=O)=O)c2)C(=O)C1 . false (0)

----------
tested on: ACHN renal; experiment: NCI-60 one-dose screen, 48 h; settings: 10 µM unless noted
The panel holds about 83,000 compounds, 20% with a hit somewhere; the sample as a whole holds those more often. The source made the active and inactive calls. Rule for the calls: active = growth percent below 10; inactive = the rest.
In this exercise, the only acceptable responses are y = active, n = inactive

Worked cases, answers included:
I would be grateful if you could indicate the recorded call for CCCCN(CCCC)CCCN=c1nc2c(c(N)n1-c1ccccc1)c(=S)n(-c1ccccc1)c(=S)n2-c1ccccc1 . y

I would be grateful if you could indicate the recorded call for CN(C)c1ccc(C(c2ccccc2)c2ccc(N(C)C)cc2)cc1 . n

I would be grateful if you could indicate the recorded call for Nc1c(C(=O)Nc2cccc(Cl)c2)sc2ncc(Br)cc12 . n

I would be grateful if you could indicate the recorded call for OC(c1cc2cc(Cl)ccc2c2cc(C(F)(F)F)ccc12)C1CCCCN1 (centres undefined) . y

***
I would be grateful if you could indicate the recorded call for CC1CN(CCCOC(=O)Nc2ccc(Cl)cc2)CCN1C(C)(C)C (centres undefined) . n

I would be grateful if you could indicate the recorded call for COc1ccc(C(=O)/C=C/c2cn(-c3ccccc3)nc2-c2cccc(Nc3ccnc4cc(Cl)ccc34)c2)cc1 . n

I would be grateful if you could indicate the recorded call for C#CC[C@@H]1C[C@]2(C)[C@H]3CC[C@@H]4[C@H]5C(C(=C)C)CC[C@]5(C(=O)NCCN(CCN)CCN)CC[C@@]4(C)[C@]3(C)CC[C@H]2C(C)(C)[C@H]1OC(C)=O (some centres undefined) . n

I would be grateful if you could indicate the recorded call for CCC1CCc2nc3sc(C(=O)Nc4cccc(F)c4)c(N)c3cc2C1 (centres undefined) . n

I would be grateful if you could indicate the recorded call for CCCCCCCCCCCCCCCCS(=O)(=O)Nc1cc(C(=O)NN)cc(C(=O)NN)c1 . n

----------
tested on: ACHN renal; assay: NCI-60 one-dose screen, 48 h (100 = growth as untreated, 0 = no growth, -100 = all killed); conditions: 10 µM unless noted
Compounds without any hit were thinned out: in the full panel of roughly 83,000, 20% have a hit.
One threshold, 80%, splits the recorded growth values: lower ones are 1, equal or higher ones are -1.

Worked cases, answers included:
# check: growth < 80% for COc1c(B(O)O)cccc1-c1nc2c(F)cc3n[nH]c(C)c3c2c2c1CCCC2 1

# check: growth < 80% for COc1ccc2cc(-c3nc(C)c(C(C)=O)c(-c4ccc(C)cc4)n3)ccc2c1 -1

# check: growth < 80% for c1ccc(C2=Nc3ccccc3SC2)cc1 -1

***
# check: growth < 80% for c1ccc(C(Nc2ccccn2)(c2ccccc2)c2ccccc2)cc1 1

# check: growth < 80% for CCc1ccc(-c2ccc(NC3CCCCCC3)nn2)cc1S(N)(=O)=O -1

# check: growth < 80% for COc1ccccc1/C=N\NC(=S)Nc1ccc(F)cc1 -1

# check: growth < 80% for CC(C)CC(NC(=O)OCC1c2ccccc2-c2ccccc21)C(=O)O (stereo unspecified) -1

# check: growth < 80% for CN=C1C=C/C(=N/N=c2/ccn(O)cc2C)C=C1C -1

# check: growth < 80% for CCOC(=O)c1ccccc1SC(C[N+](=O)[O-])c1ccccc1 (stereo unspecified) -1

----------
In this section, each of the molecules is paired with its reported growth.
system: SK-MEL-5 melanoma; assay: NCI-60 one-dose screen, 48 h (100 = growth as untreated, 0 = no growth, -100 = all killed); conditions: 10 µM unless noted
The panel holds about 83,000 compounds, 20% with a hit somewhere; the sample as a whole holds those more often.
Use % as the unit, but write only the number.

Use the examples below as a reference point.
Reported growth, molecule Cc1ccc(N=CNN=C(N)N)cc1 : ____ 105

Reported growth, molecule CC(C)N=C1CCCC1C(=S)SSC(=S)C1CCCC1=NC(C)C (stereo not drawn) : ____ 81.6

Reported growth, molecule O=C(Nc1cccc(Cl)c1)Nc1cc(C(F)(F)F)ccc1Cl : ____ 24.4

Reported growth, molecule COc1cc(/C=C/C(=O)c2ccc(NC(=O)CSc3nnc(-c4ccc(Cl)cc4)n3-c3ccccc3)cc2)cc(OC)c1OC : ____ 55.8

Reported growth, molecule CCCCCCCCNC(C)C(O)c1ccc(SC(C)C)cc1 (stereo not drawn) : ____ 68.4

Reported growth, molecule COc1cc2nccc(Oc3ccc(NC(=O)C4(C(=O)Nc5ccc(F)cc5)CC4)cc3)c2cc1OC(=O)c1ccc(N)cc1 : ____ 34

Reported growth, molecule C#CC[C@@H]1C[C@]2(C)[C@H]3CC=C4[C@H]5CC(C)(C)CC[C@]5(C(=O)NCCCCN)CC[C@@]4(C)[C@]3(C)CC[C@H]2C(C)(C)[C@H]1OC(C)=O : ____ 93.9

Reported growth, molecule O=c1[nH]cnc2nc[nH]c12 : ____ 102

***
Reported growth, molecule CCCCNCC(O)c1cc2c(Cl)cc(Cl)cc2c2cc(C(F)(F)F)ccc12 (stereo not drawn) : ____ -35.4

Reported growth, molecule ClCc1cccc(CSc2ncnc3c2ncn3Cc2cccc(CCl)c2)c1 : ____ 20.2

Reported growth, molecule C#CC[C@@H]1C[C@]2(C)[C@H]3CC[C@@H]4[C@H]5C(C(=C)C)CC[C@]5(C(=O)NCCN(CCN)CCN)CC[C@@]4(C)[C@]3(C)CC[C@H]2C(C)(C)[C@H]1OC(C)=O (stereo partly drawn) : ____ 96.5

Reported growth, molecule CN1CCN(Cc2ccc(NC(=O)c3cccc(C#Cc4cnc(N)c5ncccc45)c3F)cc2C(F)(F)F)CC1 : ____ 44.1

Reported growth, molecule O=S(=O)(NCC[C@@H]1C[C@H]1c1ccc2ccccc2c1)c1ccc(C(F)(F)F)cc1 : ____ 94.5

Reported growth, molecule Cc1ccc(NC(=O)c2nc(S(C)=O)oc2-c2ccc(F)cc2)cc1Nc1nccc(-c2cccnc2)n1 (stereo not drawn) : ____ 68.3

Reported growth, molecule COc1ccc(C2C3CCc4ccccc4C3=NN2C(=O)c2cc(OC)c(OC)c(OC)c2)cc1O (stereo not drawn) : ____ 104
